Below, each entry is listed with its recorded activity, negative = inhibition.
Assay: Stat Signaling Pathway (AID 446);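 also: ME-180 cervical cancer cells given 40 pM IL-6 alongside compound; SIE-controlled beta-lactamase reporter measured as 460/530 nm FRET emission ratio; % is scaled to controls: 0 for no effect and ±100 for the full control effect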
Conditions: ME-180 SIE beta-lactamase reporter, IL-6 stimulated, 5 h; at 17.2 µM (top of the series) unless noted
Inconclusive results are not listed. Calls of active or inactive are those of the source. Calls follow the shape of the dose curve; as a rule, active = well fitted curve in either direction with a large enough effect (not every such curve was filed as active); inconclusive = small, poorly fitted or top-dose-only effect, or another doubt; inactive = flat fitted curve, though single readings scatter.

I have this compound here, `O=C(CN1C(=O)c2ccccc2S1(=O)=O)c1ccccc1` , and I need its recorded activity, negative = inhibition.
3.52% (inactive)

I have this compound here, COc1ccc(C(CC(=O)N2CCOCC2)C(C)C)cc1 (stereo not drawn) , and I need its recorded activity, negative = inhibition.
-3.69% (inactive)

I have this compound here, `CCCCCC(=O)N1CC2(CC)CN(C(=O)CCCCC)CC(CC)(C1)C2=O` , and I need its recorded activity, negative = inhibition.
4.63% (inactive)

* * *

Test: AP1 Signaling Pathway (AID 357);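 also: ME-180 reporter cells stimulated with EGF at its EC50 level; % is scaled to controls: 0 for no effect and ±100 for the full control effect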
Details: ME-180 (cervical carcinoma) AP-1-bla reporter, EGF-induced, beta-lactamase ratio, 5 h; at 17.2 µM (top of the series) unless noted
Records with an inconclusive call do not appear.
measure.name: activity change, negative = inhibition (%)
Response body: numeric value in %, unit text excluded.

I have this compound here, `Cc1cc(=O)oc(C)c1C(=O)NCCN1CCOCC1` , and I need its recorded activity change, negative = inhibition.
11.5

I have this compound here, `CC(=O)N/C(=N/c1nc(C)cc(C)n1)Nc1ccc(NC(C)=O)cc1` , and I need its recorded activity change, negative = inhibition.
-2.08

I have this compound here, CCOC(=O)C1=C(N)n2c(s/c(=C\c3ccco3)c2=O)=C(C(=O)OC(C)C)C1c1ccco1 (stereo not drawn) , and I need its recorded activity change, negative = inhibition.
9.43

I have this compound here, `O=c1c2ccccc2[nH]c(=S)n1CCN1CCC(=C(c2ccc(F)cc2)c2ccc(F)cc2)CC1` , and I need its recorded activity change, negative = inhibition.
10.4

I have this compound here, `COc1cc(C)nc(Oc2ccc(OCCOc3ccc(C)cc3)nn2)n1` , and I need its recorded activity change, negative = inhibition.
-8.32

***
I have this compound here, O=C(O)C1[C@H]2C(=O)N(Cc3cccs3)C[C@]23C=C[C@H]1O3 (stereo partly drawn) , and I need its recorded activity change, negative = inhibition.
4.68

I have this compound here, `CCOc1ccc(-c2nc(C#N)c(N3CCN(CC)CC3)o2)cc1` , and I need its recorded activity change, negative = inhibition.
-12.4

I have this compound here, `CCSc1nnc(NC(=O)NCC(F)(F)F)s1` , and I need its recorded activity change, negative = inhibition.
7.55

* * *

Biological target: Tyrosyl-DNA phosphodiesterase 1 (Homo sapiens) (UniProt Q9NUW8)
Sequence (Q9NUW8 whole entry, looked up): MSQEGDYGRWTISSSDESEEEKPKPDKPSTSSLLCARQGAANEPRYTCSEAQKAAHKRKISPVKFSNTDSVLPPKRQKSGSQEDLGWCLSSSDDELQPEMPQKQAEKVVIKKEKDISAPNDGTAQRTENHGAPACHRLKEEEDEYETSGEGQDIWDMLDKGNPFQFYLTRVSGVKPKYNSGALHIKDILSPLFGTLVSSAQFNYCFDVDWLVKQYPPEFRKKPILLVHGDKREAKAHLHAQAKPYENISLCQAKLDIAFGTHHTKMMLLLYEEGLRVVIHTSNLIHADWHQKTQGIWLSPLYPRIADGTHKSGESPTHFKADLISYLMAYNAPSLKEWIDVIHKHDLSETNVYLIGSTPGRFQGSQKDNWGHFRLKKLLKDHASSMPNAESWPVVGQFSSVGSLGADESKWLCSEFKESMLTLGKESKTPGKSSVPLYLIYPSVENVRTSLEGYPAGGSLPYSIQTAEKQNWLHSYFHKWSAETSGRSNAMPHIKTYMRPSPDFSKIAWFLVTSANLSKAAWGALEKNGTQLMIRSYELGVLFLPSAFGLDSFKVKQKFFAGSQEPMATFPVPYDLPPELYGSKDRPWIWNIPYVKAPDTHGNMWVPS
Assay: Confirmation Assay for Inhibitors of Tyrosyl-DNA Phosphodiesterase (TDP1) (AID 489007); also: potency is read from the fitted curve at half-maximal effect; nearly all actives have a fitted effect of over 40% in size
Conditions: recombinant human TDP1 enzymatic activity, dose-response
Protocol: Human tyrosyl-DNA phosphodiesterase I (Tdp1) is a rational anticancer target because this enzyme is involved in the repair of DNA lesions created by the trapping of human DNA topoisomerase I (Top1) following treatment by anticancer agents such as camptothecins. […] 3 ul of Tdp1 enzyme is dispensed to 1536-well Kalypsys black solid bottom plates. […] The detection is then performed on a PerkinElmer Envision reader.
Records with an inconclusive call do not appear. The source made the active and inactive calls. The call rests on the fitted dose curve; in most records, active means well fitted inhibition curve with a large enough effect; inconclusive means small, poorly fitted or top-dose-only effect; inactive means flat fitted curve, though single readings scatter.
measure.name: Potency

Before answering, review these 4 worked examples.
I have this compound here, `O=C(N/N=C/c1cccc(Br)c1)c1ccc(Br)cc1` , and I need its recorded Potency.
50.1 µM (active)

I have this compound here, `O=C(CSc1nnc(SCc2ccccc2)s1)N/N=C/c1c[nH]c2ccccc12` , and I need its recorded Potency.
4.47 µM (active)

I have this compound here, `O=C(NC1CC1)c1cc(-c2ccco2)nc2ccccc12` , and I need its recorded Potency.
3.55 µM (active)

I have this compound here, `COc1ccc(S(=O)(=O)NCc2cccs2)cc1` , and I need its recorded Potency.
112 µM (active)

***
I have this compound here, `N#CC(C#N)=Cc1cccn1-c1ccc(C(=O)O)cc1` , and I need its recorded Potency.
3.98 µM (active)

I have this compound here, `O=C(Nc1cc2c(oc1=O)CCCC2=O)c1ccc(Cl)cc1` , and I need its recorded Potency.
31.6 µM (active)

I have this compound here, `Cc1ccc(S(=O)(=O)N2CCCN(c3nc4cc(C)ccc4cc3C#N)CC2)cc1` , and I need its recorded Potency.
39.8 µM (active)

I have this compound here, `Cc1ccc(-c2nc3c(c(SCC(=O)Nc4cccc(C(=O)O)c4)n2)Cc2cccc(C)c2O3)cc1` , and I need its recorded Potency.
4.08 µM (active)

I have this compound here, `CC1=NN(c2ccc(Cl)c(C(=O)O)c2)C(=O)/C1=C\c1ccc(-c2ccc(C(=O)O)cc2)o1` , and I need its recorded Potency.
14.1 µM (active)

I have this compound here, `O=C1CCCC(O)=C1N=Nc1ccc(C(=O)O)cc1` , and I need its recorded Potency.
1.41 µM (active)

I have this compound here, CO/N=C(/C(=O)NC1C(=O)N2C(C(=O)O)=C(COC(N)=O)CSC12)c1ccco1 (centres undefined) , and I need its recorded Potency.
6.31 µM (active)

I have this compound here, O=C(O)C1C2C=CC(C2)C1C(=O)NCc1cccs1 (centres undefined) , and I need its recorded Potency.
31.6 µM (active)

I have this compound here, `Cc1ccc(NC(=O)CN2C(=O)S/C(=C\c3cccn3-c3cccc(C(=O)O)c3)C2=O)c(C)c1` , and I need its recorded Potency.
15.8 µM (active)

I have this compound here, `Nc1nonc1-c1nc2ccccc2n1CC(=O)N/N=C/c1ccc(-c2cccc(C(=O)O)c2)o1` , and I need its recorded Potency.
14.1 µM (active)
